# assayedSystem: PI 3-kinase delta (Homo sapiens, UniProt O00329)
# Sequence (O00329 whole entry): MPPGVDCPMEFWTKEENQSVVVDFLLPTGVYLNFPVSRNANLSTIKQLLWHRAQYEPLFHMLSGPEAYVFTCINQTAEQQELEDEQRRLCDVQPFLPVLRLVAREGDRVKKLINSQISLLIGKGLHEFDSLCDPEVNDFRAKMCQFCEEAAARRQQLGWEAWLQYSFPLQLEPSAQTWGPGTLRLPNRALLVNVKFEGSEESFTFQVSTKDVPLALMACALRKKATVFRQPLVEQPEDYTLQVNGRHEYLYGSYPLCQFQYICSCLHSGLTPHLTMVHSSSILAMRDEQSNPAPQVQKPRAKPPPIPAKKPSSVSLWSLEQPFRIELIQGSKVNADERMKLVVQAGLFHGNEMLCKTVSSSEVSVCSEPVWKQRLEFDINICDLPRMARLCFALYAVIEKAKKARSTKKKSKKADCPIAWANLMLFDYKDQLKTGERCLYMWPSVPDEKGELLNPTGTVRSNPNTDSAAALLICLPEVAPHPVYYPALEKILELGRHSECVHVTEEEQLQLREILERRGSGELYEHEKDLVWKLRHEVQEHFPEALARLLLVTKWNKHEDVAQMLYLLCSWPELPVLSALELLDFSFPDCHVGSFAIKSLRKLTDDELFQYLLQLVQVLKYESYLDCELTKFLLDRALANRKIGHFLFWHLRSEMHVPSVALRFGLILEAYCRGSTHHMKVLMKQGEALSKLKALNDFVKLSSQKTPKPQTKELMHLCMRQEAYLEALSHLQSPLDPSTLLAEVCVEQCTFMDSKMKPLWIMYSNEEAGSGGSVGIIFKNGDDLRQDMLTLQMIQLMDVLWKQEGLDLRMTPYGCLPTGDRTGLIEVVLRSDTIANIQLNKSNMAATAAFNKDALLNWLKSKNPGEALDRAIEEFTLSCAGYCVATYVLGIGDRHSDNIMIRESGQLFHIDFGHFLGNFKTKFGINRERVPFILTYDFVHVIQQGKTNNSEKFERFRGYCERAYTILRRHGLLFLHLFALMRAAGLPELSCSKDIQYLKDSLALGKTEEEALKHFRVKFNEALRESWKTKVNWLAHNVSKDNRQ
# Sequence (P27986 461-568 partner): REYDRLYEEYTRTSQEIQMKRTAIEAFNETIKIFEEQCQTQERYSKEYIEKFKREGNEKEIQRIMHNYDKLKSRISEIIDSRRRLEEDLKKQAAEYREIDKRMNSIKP
# assaySummary: TR-FRET Adapta assay, assay F
# measurementParameters: read-out: Assay F PI3Kδ IC50
experimentalEndpoint: IC50
Answer shape: numeric part, then the unit.

Look up IC50: Cc1ncc(-c2nc(-c3cc(S(=O)(=O)NCC4CCOCC4)ccc3C)cnc2N)s1
50 nM

Give the measured IC50 of CCCn1cc(-c2nc(-c3cc(S(=O)(=O)NCCC(C)(C)O)ccc3C)cnc2N)cn1 .
290 nM

What value of measured IC50 is listed for Cc1ccc(S(=O)(=O)NCC(C)(C)O)cc1-c1cnc(N)c(-c2cnc(C3CC3)s2)n1 ?
80 nM

Field request: IC50 | item: Cc1ncc(-c2nc(-c3cc(S(=O)(=O)N4CC(CO)C4)ccc3C)cnc2N)s1
320 nM

Which IC50 value belongs to COC(C)(C)CNS(=O)(=O)c1ccc(C)c(-c2cnc(N)c(-c3ccnc(C)c3)n2)c1 ?
2100 nM

Which IC50 value is on record for Cc1cc(C)c(S(=O)(=O)NCC(C)(C)O)cc1-c1cnc(N)c(-n2cncn2)n1 ?
960 nM

Reported IC50 for Cc1ccc(S(=O)(=O)NC[C@@H]2CCOC2)cc1-c1cnc(N)c(-n2cncn2)n1 : what is it?
230 nM

Look up IC50 for this compound: Cc1ccc(S(=O)(=O)NC2(CO)CC2)cc1-c1cnc(N)c(-n2cncn2)n1
310 nM

----------
# assayedSystem: PI 3-kinase gamma (Homo sapiens)
# Sequence (P48736 whole entry): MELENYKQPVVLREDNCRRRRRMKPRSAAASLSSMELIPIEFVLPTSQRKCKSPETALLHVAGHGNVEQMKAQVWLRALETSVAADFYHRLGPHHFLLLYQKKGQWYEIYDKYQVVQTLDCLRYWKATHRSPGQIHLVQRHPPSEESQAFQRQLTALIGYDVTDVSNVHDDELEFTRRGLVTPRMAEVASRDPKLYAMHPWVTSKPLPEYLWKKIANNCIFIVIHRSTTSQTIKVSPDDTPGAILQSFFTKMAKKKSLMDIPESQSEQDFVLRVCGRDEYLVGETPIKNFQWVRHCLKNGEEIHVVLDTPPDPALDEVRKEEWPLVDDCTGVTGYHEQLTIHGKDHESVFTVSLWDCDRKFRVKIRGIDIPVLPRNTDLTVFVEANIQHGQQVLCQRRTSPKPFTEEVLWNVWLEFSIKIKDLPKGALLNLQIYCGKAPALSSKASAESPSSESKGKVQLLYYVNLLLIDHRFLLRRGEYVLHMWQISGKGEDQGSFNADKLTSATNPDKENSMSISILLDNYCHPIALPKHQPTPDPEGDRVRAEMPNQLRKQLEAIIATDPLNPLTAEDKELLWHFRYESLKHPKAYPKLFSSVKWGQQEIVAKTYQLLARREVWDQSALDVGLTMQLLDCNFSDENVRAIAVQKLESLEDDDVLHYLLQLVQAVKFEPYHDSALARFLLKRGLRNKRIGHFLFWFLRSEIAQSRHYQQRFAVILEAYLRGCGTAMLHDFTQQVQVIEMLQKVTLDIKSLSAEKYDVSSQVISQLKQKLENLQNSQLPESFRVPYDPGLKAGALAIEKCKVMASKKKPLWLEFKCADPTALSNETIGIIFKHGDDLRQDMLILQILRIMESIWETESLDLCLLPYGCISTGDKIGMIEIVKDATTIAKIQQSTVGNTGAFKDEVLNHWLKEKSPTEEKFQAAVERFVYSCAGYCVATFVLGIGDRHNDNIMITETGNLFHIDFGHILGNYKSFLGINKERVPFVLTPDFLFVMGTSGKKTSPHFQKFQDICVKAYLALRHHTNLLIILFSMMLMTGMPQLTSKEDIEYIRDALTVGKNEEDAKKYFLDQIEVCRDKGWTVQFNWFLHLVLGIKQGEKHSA
# assaySummary: TR-FRET Adapta assay, assay E
# Type: biochemical
# measurementParameters: read-out: Assay E PI3Kγ IC50
Counter-ions that a name gives are not always drawn.
Would you mind sorting the entries by IC50 according to these classes? interval 1 (below 10 nM), interval 2 (10 nM to below 80 nM), interval 3 (80 nM or more)

Using the reported IC50, which band applies to Cc1ccc(S(=O)(=O)NCC2(CO)CCC2)cc1-c1cnc(N)c(-n2cncn2)n1 ?
interval 2

Please indicate the class for Cc1ccc(S(=O)(=O)N2CCC(F)(F)C2)cc1-c1cnc(N)c(-n2cncn2)n1 based on its IC50.
interval 3

Category of Cc1ccc(S(=O)(=O)NCC2CNCCO2)cc1-c1cnc(N)c(-c2cn(C)nc2C)n1 (stereo not shown) , please.
interval 2

Lab log: Cc1ccc(S(=O)(=O)NCCC(C)(C)O)cc1-c1cnc(N)c(-c2cnn(Cc3cccnc3)c2)n1 — assign IC50 category
interval 2

Could you tell me which band COC(C)(C)CNS(=O)(=O)c1ccc(C)c(-c2cnc(N)c(-c3ccnc(C)c3)n2)c1 belongs to?
interval 3

GET /class?item= CCc1noc(-c2nc(-c3cc(S(=O)(=O)N4CCC(CO)CC4)ccc3C)cnc2N)n1
interval 2

Band for the recorded IC50 of Cc1ccc(S(=O)(=O)NCC(C)(C)O)cc1-c1cnc(N)c(-c2cnc(C3CC3)s2)n1 ?
interval 1

Into which bin does this compound go? Cc1cc(-c2nc(-c3cc(S(=O)(=O)NC[C@@H](C)O)ccc3C)cnc2N)ccn1 [Example 129, trifluoroacetic acid salt]
interval 2

Could you place Cc1ccc(S(=O)(=O)NCCC(C)(C)O)cc1-c1cnc(N)c(-c2ccoc2)n1 in its proper category? Many thanks.
interval 3

For COc1ccc(-c2nc(-c3cc(S(=O)(=O)NCCC(C)(C)O)ccc3C)cnc2N)c(C)n1 , which IC50 bin applies?
interval 3

For this compound, which bin applies? Cc1ccc(S(=O)(=O)NCC(C)(C)O)cc1-c1cnc(N)c(-c2cnn(C)c2C)n1
interval 2

Which class does Cc1ccc(S(=O)(=O)NCCC(C)(C)O)cc1-c1cnc(N)c(-n2cnc(C(C)C)n2)n1 fall in?
interval 1

Class (by measured IC50) for Cc1ccc(S(=O)(=O)NC2CC3(CC(O)C3)C2)cc1-c1cnc(N)c(-n2cncn2)n1 (stereo not shown) [Example 67]
interval 1

----------
# System: IL-8-induced neutrophil shape change in human whole blood
# assaySummary: Whole blood neutrophil shape change assay (L)
# Assay type: cell-based
# measurementParameters: Homo sapiens, Neutrophil, IL-8, human whole blood, read-out: Assay L WBSC IC50
Structures can show the parent of a compound that is named as a salt.
experimentalEndpoint: IC50 (µM)
Just the number in µM, nothing appended.

Reported IC50, compound CCN1CCC[C@@H]1CNS(=O)(=O)c1ccc(C)c(-c2cnc(N)c(-c3cn(C)nc3C)n2)c1 [Example 27, hydrochloride] : ____
0.562

Quick one: IC50 of Cc1cc(-c2nc(-c3cc(S(=O)(=O)NC4CCC(C)(O)CC4)ccc3C)cnc2N)ccn1 (stereo not shown) ?
3.43

Given Cc1ccc(S(=O)(=O)NC[C@H]2CCCO2)cc1-c1cnc(N)c(-n2cncn2)n1 , state its recorded IC50.
1.79

IC50 lookup needed for Cc1cc(F)c(S(=O)(=O)NCCC(C)(C)O)cc1-c1cnc(N)c(-c2cnn(C)c2)n1 , thanks.
1.11

Could you tell me which IC50 is on file for Cc1ccc(S(=O)(=O)NCC2(C)COC2)cc1-c1cnc(N)c(-c2cn(C)nc2C)n1 ?
0.166

IC50 lookup needed for Cc1ccc(S(=O)(=O)NCCC(C)(C)O)cc1-c1cnc(N)c(-c2cn(C)nc2C)n1 , thanks.
0.2

Requested read-out: IC50. Entry: Cc1ccc(S(=O)(=O)NCC2(C(N)=O)CC2)cc1-c1cnc(N)c(-n2cncn2)n1
0.715

----------
Exercise: state measured IC50 for each of the compounds provided.
# System: IL-8-induced neutrophil shape change in human whole blood
# assaySummary: Whole blood neutrophil shape change assay (L)
# Assay type: cell-based
# measurementParameters: Homo sapiens, Neutrophil, IL-8, human whole blood, read-out: Assay L WBSC IC50

Form entry - test system: IL-8-induced neutrophil shape change in human whole blood; read-out: IC50; compound: Cc1ccc(S(=O)(=O)NC[C@H]2C[C@@H](O)C2)cc1-c1cnc(N)c(-c2nc(C3CC3)no2)n1
3780 nM

// fetch IL-8-induced neutrophil shape change in human whole blood IC50 for CCONS(=O)(=O)c1ccc(C)c(-c2cnc(N)c(-n3cncn3)n2)c1
586 nM

Field: IC50 (IL-8-induced neutrophil shape change in human whole blood). Entry: Cc1ccc(S(=O)(=O)NCC(C)(C)CO)cc1-c1cnc(N)c(-n2cncn2)n1
803 nM

For IL-8-induced neutrophil shape change in human whole blood, provide IC50 of Cc1ccc(S(=O)(=O)NCC(C)(C)O)cc1-c1cnc(N)c(-c2cnn(CC(F)(F)F)n2)n1 please.
1010 nM

----------
# assayedSystem: PI 3-kinase alpha (Homo sapiens, UniProt P42336)
# Sequence (P42336 whole entry): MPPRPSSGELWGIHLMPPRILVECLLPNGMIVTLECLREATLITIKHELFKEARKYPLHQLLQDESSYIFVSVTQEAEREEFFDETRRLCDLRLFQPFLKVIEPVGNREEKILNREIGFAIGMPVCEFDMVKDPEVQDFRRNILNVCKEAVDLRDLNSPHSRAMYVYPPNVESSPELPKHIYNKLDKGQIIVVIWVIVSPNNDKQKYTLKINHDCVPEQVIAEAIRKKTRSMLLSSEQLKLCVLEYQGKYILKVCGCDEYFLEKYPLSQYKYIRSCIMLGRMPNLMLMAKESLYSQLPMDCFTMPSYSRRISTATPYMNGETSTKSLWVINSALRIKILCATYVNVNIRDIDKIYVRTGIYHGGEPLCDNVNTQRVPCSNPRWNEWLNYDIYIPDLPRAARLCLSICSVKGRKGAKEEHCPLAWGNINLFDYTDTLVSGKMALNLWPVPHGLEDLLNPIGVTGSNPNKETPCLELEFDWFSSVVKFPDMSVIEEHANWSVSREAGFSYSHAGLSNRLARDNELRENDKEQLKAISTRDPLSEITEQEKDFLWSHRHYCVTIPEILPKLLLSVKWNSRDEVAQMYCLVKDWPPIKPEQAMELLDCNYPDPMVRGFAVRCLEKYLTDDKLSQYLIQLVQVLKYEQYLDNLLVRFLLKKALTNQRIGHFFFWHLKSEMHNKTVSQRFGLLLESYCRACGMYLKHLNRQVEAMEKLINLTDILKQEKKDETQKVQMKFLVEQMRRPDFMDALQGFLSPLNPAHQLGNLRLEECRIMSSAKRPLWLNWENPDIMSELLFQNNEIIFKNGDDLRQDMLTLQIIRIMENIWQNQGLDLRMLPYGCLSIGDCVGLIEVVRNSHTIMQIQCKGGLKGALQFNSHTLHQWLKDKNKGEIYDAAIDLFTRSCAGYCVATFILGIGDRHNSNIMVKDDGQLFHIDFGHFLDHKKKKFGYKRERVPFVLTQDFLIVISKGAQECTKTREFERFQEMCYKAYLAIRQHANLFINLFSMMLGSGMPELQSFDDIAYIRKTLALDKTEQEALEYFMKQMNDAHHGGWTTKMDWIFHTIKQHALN
# Sequence (Q63787 whole entry partner): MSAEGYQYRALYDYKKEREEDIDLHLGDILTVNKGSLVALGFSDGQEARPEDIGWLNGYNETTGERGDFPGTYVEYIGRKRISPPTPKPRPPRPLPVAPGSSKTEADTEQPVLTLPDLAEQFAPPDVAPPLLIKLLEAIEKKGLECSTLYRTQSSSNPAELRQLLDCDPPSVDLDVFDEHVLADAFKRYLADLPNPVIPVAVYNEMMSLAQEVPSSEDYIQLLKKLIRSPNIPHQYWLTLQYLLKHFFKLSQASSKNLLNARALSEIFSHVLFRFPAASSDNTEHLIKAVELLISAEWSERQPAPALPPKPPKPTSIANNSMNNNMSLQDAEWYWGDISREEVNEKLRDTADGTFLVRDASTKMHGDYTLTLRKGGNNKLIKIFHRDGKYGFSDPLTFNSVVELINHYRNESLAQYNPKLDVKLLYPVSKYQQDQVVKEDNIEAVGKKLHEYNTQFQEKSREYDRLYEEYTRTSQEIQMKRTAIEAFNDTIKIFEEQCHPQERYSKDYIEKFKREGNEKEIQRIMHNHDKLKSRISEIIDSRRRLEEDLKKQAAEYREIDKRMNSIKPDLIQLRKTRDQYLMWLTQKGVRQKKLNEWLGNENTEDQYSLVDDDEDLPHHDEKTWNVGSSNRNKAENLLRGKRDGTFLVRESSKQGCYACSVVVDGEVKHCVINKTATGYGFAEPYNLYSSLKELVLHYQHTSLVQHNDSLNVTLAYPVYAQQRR
# assaySummary: Cellular assay H1, p-Akt (S473) in Rat-1 cells, Surefire format
# Format: cell-based
# measurementParameters: non-asterisked data: version H1 (Surefire format), Rat-1 cells; read-out: Assay H PI3Kα IC50
Structures can show the parent of a compound that is named as a salt.
One threshold, 2 µM, splits the recorded IC50 values: lower ones are y, equal or higher ones are n.

Item Cc1ccc(S(=O)(=O)NOC(C)(C)C)cc1-c1cnc(N)c(-n2cncn2)n1 : IC50 beneath 2 µM, strictly?
y

Dear reviewer, please state whether Cc1ccc(S(=O)(=O)NCC2COCCN2C)cc1-c1cnc(N)c(-c2cn(C)nc2C)n1 (single isomer, unassigned) [Example 128.3b] has IC50 strictly beneath 2 µM.
n

Lab log: compare recorded IC50 with 2 µM; is it strictly lower for Cc1ccc(S(=O)(=O)NCCC(C)(C)O)cc1-c1cnc(N)c(-c2cnc(Cl)cc2C)n1 ?
y

Quick check: does COc1ccncc1-c1nc(-c2cc(S(=O)(=O)NCCC(C)(C)O)ccc2C)cnc1N have IC50 under 2 µM?
n

Bench note: check whether Cc1ccc(S(=O)(=O)NCCC(C)(C)O)cc1-c1cnc(N)c(-n2cncn2)n1 shows IC50 below 2 µM
y

Hello, I'm reviewing records and need to know if IC50 of Cc1ccc(S(=O)(=O)N[C@H]2CC[C@H](O)CC2)cc1-c1cnc(N)c(-c2nc(C3CC3)no2)n1 is below 2 µM. Could you check?
y

API: query returns whether the compound falls strictly under 2 µM in IC50. Query: Cc1ccc(S(=O)(=O)NCC(C)(C)O)cc1-c1cnc(N)c(-c2cnn(CC(F)(F)F)n2)n1
y

# check: IC50 < 2 µM for Cc1cc(-c2nc(-c3cc(S(=O)(=O)NCCC(C)(C)O)ccc3C)cnc2N)ccn1
y

Quick check: does Cc1ccc(S(=O)(=O)NCC(C)(C)CO)cc1-c1cnc(N)c(-n2cncn2)n1 have IC50 under 2 µM?
n

Regarding Cc1ccc(S(=O)(=O)NCC2(CO)CCCCC2)cc1-c1cnc(N)c(-n2cncn2)n1 , kindly confirm whether its IC50 is beneath 2 µM.
y

Confirm or reject: IC50 of Cc1ccc(S(=O)(=O)NCC(C)(C)O)cc1-c1cnc(N)c(-n2cnc(CN(C)C)n2)n1 [Example 117, hydrochloride salt] lies strictly below 2 µM
n

Consider Cc1ccc(S(=O)(=O)NOCC(C)(C)O)cc1-c1cnc(N)c(-c2cn(C)nc2C)n1 . Does its IC50 lie strictly below 2 µM?
n

IC50 under 2 µM? Item: Cc1ccc(S(=O)(=O)NC2CC3(CC(O)C3)C2)cc1-c1cnc(N)c(-n2cncn2)n1 (single isomer, unassigned) [Example 70a]
y

Dear colleague, could you confirm whether IC50 of Cc1ccc(S(=O)(=O)NCC2CNCCO2)cc1-c1cnc(N)c(-c2cn(C)nc2C)n1 (stereo not drawn) falls below 2 µM? Thanks.
n

Dear colleague, could you confirm whether IC50 of Cc1cc(-c2nc(-c3cc(S(=O)(=O)NCC4CCCO4)ccc3C)cnc2N)ccn1 (stereo not drawn) falls below 2 µM? Thanks.
n

Answer whether the compound Cc1ncc(-c2nc(-c3cc(S(=O)(=O)N4CCNC(C(F)(F)F)C4)ccc3C)cnc2N)s1 (stereo not drawn) has IC50 strictly less than 2 µM
y

# strict comparison: is reported IC50 < 2 µM? input = Cc1ncc(-c2nc(-c3cc(S(=O)(=O)NC4CC(O)C4)ccc3C)cnc2N)s1 (mixture of isomers)
y

Field: below-cutoff. Rule: recorded IC50 strictly less than 2 µM. Subject: Cc1ccc(S(=O)(=O)N[C@H]2CC[C@H](O)CC2)cc1-c1cnc(N)c(-c2nc(C(C)C)no2)n1
n

Quick check: does COc1cc(-c2nc(-c3cc(S(=O)(=O)NCCC(C)(C)O)ccc3C)cnc2N)ccn1 have IC50 under 2 µM?
y

Does Cc1ccc(S(=O)(=O)NCCC(C)(C)O)cc1-c1cnc(N)c(-c2cn[nH]c2)n1 have IC50 strictly under 2 µM?
n

I wonder whether CCN1CCC[C@@H]1CNS(=O)(=O)c1ccc(C)c(-c2cnc(N)c(-c3cnc(C)s3)n2)c1 has IC50 below 2 µM. Can you tell?
n

Item CCc1noc(-c2nc(-c3cc(S(=O)(=O)NCCC(C)(C)O)ccc3C)cnc2N)n1 : IC50 beneath 2 µM, strictly?
y

Find out if reported IC50 for Cc1ccc(S(=O)(=O)NOCC(C)(C)O)cc1-c1cnc(N)c(-n2cncn2)n1 is less than 2 µM
y

Given Cc1ccc(S(=O)(=O)NC2CC3(CC(O)C3)C2)cc1-c1cnc(N)c(-n2cncn2)n1 (stereo not drawn) [Example 67] , is recorded IC50 strictly lower than 2 µM?
y

Lab log: compare recorded IC50 with 2 µM; is it strictly lower for Cc1ccc(S(=O)(=O)NCC2CN(C)CCO2)cc1-c1cnc(N)c(-c2cn(C)nc2C)n1 (stereo not drawn) ?
n

Here's an entry: Cc1ccc(S(=O)(=O)N[C@H]2CC[C@](C)(O)CC2)cc1-c1cnc(N)c(-n2cncn2)n1 [Example 69a] . Is its IC50 below 2 µM?
n

Given the entry Cc1cn(-c2nc(-c3cc(S(=O)(=O)N[C@H]4CC[C@H](O)CC4)ccc3C)cnc2N)cn1 , would its reported IC50 be below 2 µM?
n

Does this compound meet the criterion IC50 < 2 µM? Cc1cc(F)c(S(=O)(=O)NCCC(C)(C)O)cc1-c1cnc(N)c(-n2cncn2)n1
n

Threshold test, IC50 < 2 µM: Cc1ccc(S(=O)(=O)NC[C@H]2C[C@@H](O)C2)cc1-c1cnc(N)c(-n2cncn2)n1
n

Is IC50 of Cc1ncn(-c2nc(-c3cc(S(=O)(=O)NCCC(C)(C)O)ccc3C)cnc2N)n1 strictly below 2 µM?
y
